Where do the numbers come from? From paper PMC3344887.

- Test protocol: clinical
- Condition notes: human, in vivo, 120 mg
Metric: Cmax (ng/mL)
Answers are plain numbers, in ng/mL.

Quick note, Cmax for CNCC[C@H](Oc1cccc2ccccc12)c1cccs1 [Duloxetine] landed at 107

====

- Target of assay: DAT (Homo sapiens)
- Sequence (Q01959 whole entry): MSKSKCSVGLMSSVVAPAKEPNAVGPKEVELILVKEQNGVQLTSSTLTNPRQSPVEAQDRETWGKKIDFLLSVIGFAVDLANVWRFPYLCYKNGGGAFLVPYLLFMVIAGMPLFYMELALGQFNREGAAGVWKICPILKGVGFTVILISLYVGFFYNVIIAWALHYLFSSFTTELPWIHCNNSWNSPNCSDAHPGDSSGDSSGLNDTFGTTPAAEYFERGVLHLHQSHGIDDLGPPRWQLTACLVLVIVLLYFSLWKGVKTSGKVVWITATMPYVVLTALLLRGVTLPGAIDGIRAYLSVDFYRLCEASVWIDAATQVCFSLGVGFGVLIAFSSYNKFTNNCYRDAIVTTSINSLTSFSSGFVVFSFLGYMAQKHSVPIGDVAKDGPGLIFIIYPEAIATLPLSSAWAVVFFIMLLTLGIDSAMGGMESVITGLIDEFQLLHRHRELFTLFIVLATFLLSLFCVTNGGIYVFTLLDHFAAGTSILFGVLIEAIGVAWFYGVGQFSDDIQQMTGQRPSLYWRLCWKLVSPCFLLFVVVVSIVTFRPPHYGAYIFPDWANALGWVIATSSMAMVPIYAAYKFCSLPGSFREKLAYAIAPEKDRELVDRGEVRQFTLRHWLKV
- Test protocol: Radioligand binding, [3H]-WIN35,428, HEK 293 membranes
- Design: expressed in transfected cells; host or cells: HEK 293 cells (Invitrogen), stably transfected
Metric: Ki (µM)
One number for each entry, in µM.

{"columns": ["Compound", "Readout unit", "Value observed"],
 "data": [
  ["CC(N)Cc1ccc2c(c1)OCO2 (centres unmarked) [MDA, 3,4-methylenedioxyamphetamine]", "µM", 26.4]
]}

Moving on to the next compound.
According to the records, this compound CNC(C)Cc1ccc2c(c1)OCO2 (centres unmarked) [MDMA, 3,4-methylenedioxymethamphetamine] displays Ki of 6.52

====

- Test protocol: clinical
- Condition notes: human, in vivo
Metric: Cmax (ng/mL)
One number for each entry, in ng/mL.

Some solved cases for reference:
{"columns": ["Compound", "Metric", "Readout unit", "Value observed"],
 "data": [
  ["CC(N)Cc1ccc2c(c1)OCO2 (stereo not drawn) [MDA, 3,4-methylenedioxyamphetamine]", "Cmax", "ng/mL", 10.7],
  ["CNC(C)Cc1ccc2c(c1)OCO2 (stereo not drawn) [MDMA, 3,4-methylenedioxymethamphetamine]", "Cmax", "ng/mL", 254]
]}

Summary for this compound, CNCC[C@H](Oc1cccc2ccccc12)c1cccs1 [Duloxetine] : Cmax is 112

====

- Test protocol: clinical
- Condition notes: human, in vivo, AUC0-6, Placebo-MDMA session, mean±SEM, n=16
Metric: AUC(0-t) (ng·h/mL)
Answers are plain numbers, in ng·h/mL.

CNC(C)Cc1ccc2c(c1)OCO2 (stereo not shown) has a reported AUC(0-t) of 953

====

- Target of assay: UniProt P23975
- Sequence (P23975 whole entry): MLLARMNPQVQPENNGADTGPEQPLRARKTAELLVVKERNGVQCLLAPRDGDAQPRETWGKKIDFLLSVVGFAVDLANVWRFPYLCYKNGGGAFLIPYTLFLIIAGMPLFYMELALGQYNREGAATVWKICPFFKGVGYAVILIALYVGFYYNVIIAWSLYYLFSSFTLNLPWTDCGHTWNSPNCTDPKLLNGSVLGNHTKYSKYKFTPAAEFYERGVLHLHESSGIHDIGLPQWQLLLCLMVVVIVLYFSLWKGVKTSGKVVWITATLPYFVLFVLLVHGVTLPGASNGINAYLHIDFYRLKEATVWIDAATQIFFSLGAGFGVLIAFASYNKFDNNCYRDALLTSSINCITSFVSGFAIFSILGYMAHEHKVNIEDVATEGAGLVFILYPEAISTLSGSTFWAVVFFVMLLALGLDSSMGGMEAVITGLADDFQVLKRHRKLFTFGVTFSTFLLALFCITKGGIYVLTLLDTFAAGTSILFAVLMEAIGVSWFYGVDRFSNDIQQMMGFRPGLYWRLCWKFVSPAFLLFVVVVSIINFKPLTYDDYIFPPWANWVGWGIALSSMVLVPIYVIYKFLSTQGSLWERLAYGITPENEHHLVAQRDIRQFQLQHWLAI
- Test protocol: [3H]-NE uptake inhibition, method A (silicon oil)
- Format: cell-based
- Design: expressed in transfected cells; host or cells: HEK 293 cells (Invitrogen), stably transfected
I'd be grateful if you could share measured pKi for these entries.
Numbers only, as −log10 of the molar value.

{"columns": ["Compound", "pKi"],
 "data": [
  ["CNC(C)Cc1ccc2c(c1)OCO2 (centres unmarked) [MDMA, 3,4-methylenedioxymethamphetamine]", 6.33]
]}

pKi for CC(N)Cc1ccc2c(c1)OCO2 (centres unmarked) [MDA, 3,4-methylenedioxyamphetamine] is 6.47

====

- Test protocol: clinical
- Condition notes: human, in vivo, Tmax
- Description: Identical placebo (lactose) capsules were prepared. […] Drugs were administered without food. Plasma concentrations of copeptin were also determined in this study as reported elsewhere. […] No hydrolysis was performed. […] Cmax and tmax were obtained directly from the observed concentration-time curves. […] Terminal elimination half-life (t 1/2) was calculated using λz and the equation t1/2 = ln2/λz. […] The AUC0–∞ was determined by extrapolation of AUC0–6h using λz. […]
Please provide measured Tmax for the entries that follow.
Give bare numbers, in h.

{"columns": ["Molecule", "Metric", "Value observed"],
 "data": [
  ["CNC(C)Cc1ccc2c(c1)OCO2 (stereo not drawn)", "Tmax", 2.66],
  ["CNCC[C@H](Oc1cccc2ccccc12)c1cccs1", "Tmax", 5.14]
]}

Note: attention shifts to another entry.
Record CC(N)Cc1ccc2c(c1)OCO2 (stereo not drawn) . Reported Tmax: 5.5
